Provide the reported pest or weed control at 280 ppm of each item.
- System: Lambsquarter (Chenopodium album)
- procedure-summary: Preemergence herbicidal activity, Lambsquarter
- Type: in vivo
- test-conditions: pre-emergence, 504 h, rate 280 ppm, visual score after 3 weeks, 100 = complete kill or no germination, read-out: Pre-emergent % control CHEAL
Note: unit % is implicit; provide only the numeric part.

Please give the documented pest or weed control at 280 ppm of Cc1cc(N)c(Cl)c(C(=O)O)n1 100

Please give the documented pest or weed control at 280 ppm of C=Cc1nc(C(=O)OC)c(Cl)c(N)c1F 100

Please give the documented pest or weed control at 280 ppm of CCc1cc(N)c(Cl)c(C(=O)OC)n1 98

Please give the documented pest or weed control at 280 ppm of CCc1cc(N)c(Cl)c(C(=O)O)n1 90

----------
- Tested on: Ivyleaf Morningglory (Ipomoea hederacea)
- procedure-summary: Preemergence herbicidal activity, Ivyleaf Morningglory
- Format: in vivo
- test-conditions: pre-emergence, 504 h, rate 560 ppm, visual score after 3 weeks, 100 = complete kill or no germination, read-out: Pre-emergent % control IPOHE
Provide the reported pest or weed control at 560 ppm of each item.

Please give the documented pest or weed control at 560 ppm of CSCc1cc(N)c(Cl)c(C(=O)O)n1 0%

Please give the documented pest or weed control at 560 ppm of COCc1cc(N)c(Cl)c(C(=O)O)n1 50%

Please give the documented pest or weed control at 560 ppm of C=CCc1cc(N)c(Cl)c(C(=O)O)n1 80%

Please give the documented pest or weed control at 560 ppm of C=Cc1cc(N)c(Cl)c(C(=O)OC)n1 60%

----------
- Test system: Giant Foxtail (Setaria faberi)
- procedure-summary: Postemergence herbicidal activity, Giant Foxtail
- Assay type: in vivo
- test-conditions: post-emergence, 336 h, rate 250 ppm, visual score after 2 weeks, 0 = no injury, 100 = complete kill, read-out: Post-emergent % control SETFA
quantity: pest or weed control at 250 ppm (%)
Note: unit % is implicit; provide only the numeric part.

Please give the documented pest or weed control at 250 ppm of C=Cc1nc(C(=O)OC)c(Cl)c(N)c1F [Compound 1] 50

Please give the documented pest or weed control at 250 ppm of C=Cc1cc(N)c(Cl)c(C(=O)OC)n1 [Compound 2] 10

Please give the documented pest or weed control at 250 ppm of CCc1nc(C(=O)OC)c(Cl)c(N)c1F [Compound 3] 80

Please give the documented pest or weed control at 250 ppm of C=CCc1cc(N)c(Cl)c(C(=O)O)n1 [Compound 11] 0

Please give the documented pest or weed control at 250 ppm of CSCc1cc(N)c(Cl)c(C(=O)O)n1 [Compound 10] 20

Please give the documented pest or weed control at 250 ppm of COCc1cc(N)c(Cl)c(C(=O)O)n1 [Compound 9] 0

Please give the documented pest or weed control at 250 ppm of Cc1cc(N)c(Cl)c(C(=O)O)n1 [Compound 8] 0
